test system: NuRD complex; assay: Chemoproteomic binding profiling, K562 cell extract, SAHA/ITF2357 probe matrix (Kd app); design: species or system human; settings: protein MTA2; NuRD complex; read-out: Kd^app MTA2
Attribute: Kd
Note: unit µM is implicit; provide only the numeric part.

Q: # get_value(readout='Kd', item= CCCCOc1ccc(CC(=O)NO)cc1 [bufexamac] )
Result: 555

Q: Form field: reported Kd of CN(C)Cc1c(C(=O)NCCOc2ccc(C(=O)NO)cc2)oc2ccccc12 [PCI-24781]
Result: 0.06

Q: Recorded Kd for O=C(/C=C/c1ccc(CN(CCO)CCc2c[nH]c3ccccc23)cc1)NO [dacinostat] , please?
Result: 0.02

Q: State the recorded Kd for this entry: CCCC(CCC)C(=O)O [valproate, valproic acid]
Result: 997

---

biological target: ISOC1 (Homo sapiens, UniProt Q96CN7); construct: endogenous in cells; assay: Competition binding assay in cell lysate, affinity matrix, MS; conditions: ISOC1; K-562 cell lysate; read-out: IC50
Sequence (Q96CN7 whole entry): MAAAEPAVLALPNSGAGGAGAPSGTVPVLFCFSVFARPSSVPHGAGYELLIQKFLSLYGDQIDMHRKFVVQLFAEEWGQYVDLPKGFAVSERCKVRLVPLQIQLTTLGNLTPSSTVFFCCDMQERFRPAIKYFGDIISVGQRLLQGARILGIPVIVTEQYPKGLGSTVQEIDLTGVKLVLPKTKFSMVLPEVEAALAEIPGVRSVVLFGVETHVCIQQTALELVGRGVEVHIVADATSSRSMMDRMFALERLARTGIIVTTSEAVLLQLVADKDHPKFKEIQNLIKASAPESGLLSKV
MEASUREMENT_LABEL: IC50 (µM)
Output spec: scalar in µM, unitless text.

Q: Entry CC(/C=C/C(=O)NO)=C\[C@@H](C)C(=O)c1ccc(N(C)C)cc1 : reported IC50 = ?
Result: 3

---

biological target: BZW2 (Homo sapiens); construct: endogenous in cells; experiment: Competition binding assay in cell lysate, affinity matrix, MS; settings: IC50, BZW2; K-562 cell lysate
Sequence (Q9Y6E2 whole entry): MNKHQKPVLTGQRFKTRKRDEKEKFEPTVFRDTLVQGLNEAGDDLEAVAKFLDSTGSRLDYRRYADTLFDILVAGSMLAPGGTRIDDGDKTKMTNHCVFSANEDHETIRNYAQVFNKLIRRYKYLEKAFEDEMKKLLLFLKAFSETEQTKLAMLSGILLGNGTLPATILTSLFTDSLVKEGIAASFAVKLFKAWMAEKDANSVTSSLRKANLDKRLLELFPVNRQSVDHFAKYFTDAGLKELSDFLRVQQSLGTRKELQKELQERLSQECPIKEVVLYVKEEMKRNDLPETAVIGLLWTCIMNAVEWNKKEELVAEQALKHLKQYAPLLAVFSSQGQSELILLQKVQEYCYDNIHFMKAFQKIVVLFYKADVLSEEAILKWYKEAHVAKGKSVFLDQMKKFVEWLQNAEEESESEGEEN
MEASUREMENT_LABEL: pIC50
Worth noting: pIC50 values are minus log10 of concentrations stated in mol/L.

Q: Given the entry O=C(CCCCCCC(=O)Nc1ccccc1)NO [SAHA, suberoylanilide hydroxamic acid] , report its measured pIC50.
Result: 5.51

---

Each entry below carries its recorded pKd.
molecular target: HDAC3-NCoR complex (Homo sapiens); assay: Chemoproteomic binding profiling, K562 cell extract, SAHA/ITF2357 probe matrix (Kd app); conditions: protein NCOR2, read-out: Kd^app NCOR2
Sequence (O15379 whole entry, one chain of several): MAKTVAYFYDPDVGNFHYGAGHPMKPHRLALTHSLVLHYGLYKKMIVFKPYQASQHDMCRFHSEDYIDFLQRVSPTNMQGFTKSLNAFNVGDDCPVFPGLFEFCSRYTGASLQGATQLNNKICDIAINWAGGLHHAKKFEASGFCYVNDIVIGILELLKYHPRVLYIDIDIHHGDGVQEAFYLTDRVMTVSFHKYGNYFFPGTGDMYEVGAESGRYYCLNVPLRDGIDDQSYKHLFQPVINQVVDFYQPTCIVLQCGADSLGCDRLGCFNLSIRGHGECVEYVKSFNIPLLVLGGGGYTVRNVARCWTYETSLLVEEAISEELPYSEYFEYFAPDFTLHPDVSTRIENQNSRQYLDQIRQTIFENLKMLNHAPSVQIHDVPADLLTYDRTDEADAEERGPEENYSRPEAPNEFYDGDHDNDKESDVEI
Quick note: pKd values are minus log10 of concentrations in mol/L.

Q: Look at this molecule and give its reported pKd. CCCCOc1ccc(CC(=O)NO)cc1 [bufexamac]
Result: 3.38

Now for a further molecule.
Q: // query pKd value for entry Nc1ccccc1NC(=O)CCCCCCC(=O)Nc1ccccc1 [BML-210]
Result: 4.82

---

target: HDAC6 (Homo sapiens, UniProt Q9UBN7); test: Chemoproteomic binding profiling, K562 cell extract, SAHA/ITF2357 probe matrix (Kd app); set-up: used to probe endogenous HDACs in K562 whole cell extracts; endogenous in cells; settings: read-out: Kd^app HDAC6; protein HDAC6; class II HDAC
Sequence (Q9UBN7 whole entry): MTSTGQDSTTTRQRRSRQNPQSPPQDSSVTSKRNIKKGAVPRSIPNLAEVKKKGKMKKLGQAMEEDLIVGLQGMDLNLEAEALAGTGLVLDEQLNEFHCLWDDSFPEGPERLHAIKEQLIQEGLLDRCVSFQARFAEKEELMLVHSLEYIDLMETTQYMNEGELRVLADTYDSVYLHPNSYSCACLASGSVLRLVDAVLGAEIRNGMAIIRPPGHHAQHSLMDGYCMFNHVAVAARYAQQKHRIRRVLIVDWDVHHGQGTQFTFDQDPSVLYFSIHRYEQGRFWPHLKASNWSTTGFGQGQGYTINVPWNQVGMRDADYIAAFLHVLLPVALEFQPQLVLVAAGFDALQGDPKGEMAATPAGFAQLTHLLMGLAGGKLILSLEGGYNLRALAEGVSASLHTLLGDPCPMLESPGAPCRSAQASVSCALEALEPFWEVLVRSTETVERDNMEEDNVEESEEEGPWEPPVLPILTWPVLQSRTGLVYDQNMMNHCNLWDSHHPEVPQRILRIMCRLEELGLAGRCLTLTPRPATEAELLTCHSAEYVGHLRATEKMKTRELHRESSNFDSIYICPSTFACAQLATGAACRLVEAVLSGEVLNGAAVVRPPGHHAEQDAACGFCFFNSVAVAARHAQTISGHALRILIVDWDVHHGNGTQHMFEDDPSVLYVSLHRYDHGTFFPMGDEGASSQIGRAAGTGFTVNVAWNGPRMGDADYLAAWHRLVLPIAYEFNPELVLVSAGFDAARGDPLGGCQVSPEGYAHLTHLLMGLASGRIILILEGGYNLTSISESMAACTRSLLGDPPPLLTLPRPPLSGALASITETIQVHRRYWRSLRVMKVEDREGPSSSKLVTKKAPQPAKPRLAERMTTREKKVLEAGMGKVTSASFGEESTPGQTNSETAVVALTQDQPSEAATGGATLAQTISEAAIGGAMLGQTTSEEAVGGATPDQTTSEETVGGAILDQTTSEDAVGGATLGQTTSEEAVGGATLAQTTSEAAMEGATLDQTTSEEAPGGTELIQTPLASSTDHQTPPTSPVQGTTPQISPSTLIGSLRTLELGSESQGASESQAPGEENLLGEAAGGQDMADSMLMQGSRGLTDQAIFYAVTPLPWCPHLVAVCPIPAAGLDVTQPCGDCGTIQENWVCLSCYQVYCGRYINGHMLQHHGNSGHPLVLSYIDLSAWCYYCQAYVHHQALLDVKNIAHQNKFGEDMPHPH
pKd: −log10 of the molar value.
MEASUREMENT_LABEL: pKd

Q: Quick one: pKd of CCCC(CCC)C(=O)O [valproate, valproic acid] ?
Result: < 5.00

---

test system: DNTTIP1; assay: Competition binding assay in cell lysate, affinity matrix, MS; conditions: K-562 cell lysate
Below, each entry is listed with its recorded pIC50.
Please report pIC50 as the negative decimal logarithm of the molar concentration, giving only the number.

Q: Recorded pIC50 for CC(/C=C/C(=O)NO)=C\[C@@H](C)C(=O)c1ccc(N(C)C)cc1 [Trichostatin A] , please?
Result: 7.30

Q: Which pIC50 value is on record for O=C(CCCCCCC(=O)Nc1ccccc1)NO [SAHA, suberoylanilide hydroxamic acid] ?
Result: 6.32

Q: Entry under review: Nc1ccccc1NC(=O)c1ccc(CNC(=O)OCc2cccnc2)cc1 [MS-275] . Reported pIC50?
Result: 3.52

Origin of the recorded values: patent US20130071854A1
